Test system: HT-29
measurement-protocol: NCI tumour cell line growth inhibition, 48 h
Activity calls are given as the source filed them. No stated cut-off is given here; in the data, active = GI50 up to about 1.1 µM and inactive = higher.
endpoint: GI50

Quickly give me recorded GI50 for "N#Cc1c(-c2ccc(Cl)c(Cl)c2)c(-c2ccc(Cl)c(Cl)c2)nn(CC(=O)O)c1=O"
33.3 µM (inactive)

Quickly give me recorded GI50 for "COc1ccc(C(=O)/C=C/c2ccc(OCC#N)cc2)cc1OC"
22.3 µM (inactive)

Quickly give me recorded GI50 for "CCCCCCCCNC(=O)C1=C(C)NC(C)=C(C(=O)NCCCCCCCC)C1"
82.8 µM (inactive)

Quickly give me recorded GI50 for "O=C(Nc1ccccc1)N1CCNC1=S"
> 100 µM (inactive)

Quickly give me recorded GI50 for "Cc1ccc(NC(=O)c2cc(S(=O)(=O)Nc3nc4cccnc4[nH]3)c(SSc3cc(Cl)c(C(=O)Nc4ccc(C)cc4)cc3S(=O)(=O)Nc3nc4cccnc4[nH]3)cc2Cl)cc1"
> 100 µM (inactive)

Data credit: ChEMBL document CHEMBL1201862
